# experiment: chemical genetic growth profiling, strain panel (AID 1159580);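 further: tested at 20 µM; growth read once vehicle control cultures reached saturation at 30 °C; 1 = growth at the plate median or of vehicle wells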
# condition: S. cerevisiae deletion strains, growth OD, locus YDR137W, strain rgp1, active compounds read low
Out of some 5,500 compounds screened, about 2,000 (36%) were called active. About 18% were inconclusive and are not listed. The list shows a part of the results.
Define the label as criterion met when normalized growth is strictly less than 1 and as criterion not met in all remaining cases.

As a guide, the following entries are already answered.
CN1CC(=O)N=C1N :: criterion not met
COc1ccc(C(c2ccc(OC)cc2)C(Cl)(Cl)Cl)cc1 :: criterion met

# strict comparison: is reported normalized growth < 1? input = Nc1nc(=S)c2[nH]cnc2[nH]1
criterion met

Regarding COC(=O)[C@@H]1OC(=O)C2OC23[C@@]1(C)CCC1[C@]2(C)C(C[C@H](O)[C@]13C)C(C)(C)[C@H](OC(C)=O)C[C@@H]2OC(C)=O (some centres not stated) , kindly confirm whether its normalized growth is beneath 1.
criterion not met

====

# experiment: chemical genetic growth profiling, strain panel (AID 1159580)
# condition: S. cerevisiae deletion strains, growth OD, locus YLR268W, strain sec22
Out of some 5,500 compounds screened, about 2,000 (36%) were called active. Not shown: some 18% with an inconclusive outcome. Rule as the data show it: active = normalized growth mostly below about 0.91 (no sharp cut-off); inconclusive = no clear call, values can overlap the other calls; inactive = mostly above about 0.92. The list shows a part of the results.
The reply should name one outcome from 1 (active), -1 (inactive)

COc1ccccc1-c1coc2cc(O)ccc2c1=O :: -1
CC[C@@]1(O)C[C@H](O[C@H]2C[C@H](N(C)C)[C@H](O)[C@H](C)O2)c2c(cc3c(c2O)C(=O)c2c(O)ccc(O)c2C3=O)[C@H]1C(=O)OC :: 1
NCCC(O)C(=O)NC1CC(N)C(OC2OC(CN)C(O)C(O)C2N)C(OC2OC(CO)C(O)C2O)C1O (centres undefined) :: -1
COc1ccc(-c2coc3cc(O)ccc3c2=O)cc1 :: -1
Cc1ncc(CNC(=O)N(CCCl)N=O)c(N)n1 :: -1
CC[C@H]1OC(=O)[C@H](C)[C@@H](O[C@H]2C[C@@](C)(OC)[C@@H](O)[C@H](C)O2)[C@H](C)[C@@H](O[C@@H]2O[C@H](C)C[C@H](N(C)C)[C@H]2O)[C@](C)(OC)C[C@@H](C)C(=O)[C@H](C)[C@@H](O)[C@]1(C)O :: -1
CC[C@@]1(O)C[C@H](O)c2c(cc3c(c2O)C(=O)c2c(O)ccc(O)c2C3=O)[C@H]1C(=O)OC :: 1
CCN(CC)Cc1ccc(Nc2ccnc3cc(Cl)ccc23)cc1O :: -1
CNCCC(Oc1ccc(C(F)(F)F)cc1)c1ccccc1 (centres undefined) :: -1
CC[C@@]1(O)C[C@H](O[C@H]2C[C@H](N(C)C)[C@H](O)[C@H](C)O2)c2c(cc3c(c2O)C(=O)c2c(O)cccc2C3=O)[C@H]1C(=O)OC :: 1

Kindly provide the recorded test outcome for the following compound: COC(=O)C[C@H]1C2(C)CC34OC5(C)O[C@@]6([C@H](OC(C)=O)C(OC(C)=O)[C@]7(C)C(/C(=C(/O)C(C)C)C(=O)O[C@H]7c7ccoc7)[C@@]6(O5)[C@H](OC(C)=O)[C@@]3(O)C2OC(=O)C(C)C)[C@]14C (some centres undefined)
-1

====

Listing of recorded normalized growth by entry.
# experiment: chemical genetic growth profiling, strain panel (AID 1159580)
# condition: S. cerevisiae deletion strains, growth OD, locus YGL253W, strain hxk2, active compounds read low
Among all 5,500 compounds or so, about 2,000 (36%) were called active. Another 18% or so got no clear call; they are omitted. This is one part of the list.

C/C=C(\C)C(=O)O[C@H]1C[C@@H](OC(C)=O)[C@@]2(C(=O)OC)CO[C@@H]3C2[C@]12CO[C@](O)(C(=O)OC)[C@H]2[C@](C)(C12O[C@@]1(C)[C@H]1C[C@@H]2OC2OC=C[C@@]21O)[C@@H]3O (stereo partly drawn) :: 0.986 (inactive)
Cc1[nH]c2ccccc2c1CN(C)C :: 1.02 (inactive)
COc1ccc(-c2coc3cc(O)ccc3c2=O)c(OC)c1 :: 0.981 (inactive)
CCn1cc(C(=O)O)c(=O)c2cc(F)c(N3CCNC(C)C3)c(F)c21 (stereo not drawn) :: 0.98 (inactive)
CC[C@@H]1C=C/C=C/C[C@H](C)[C@@H](O)[C@](C)(O)C(=O)[C@H](C)[C@@H](O)[C@H](C)C(=O)[C@H](C)[C@@H](O)[C@H](C)/C=C/C(=O)O[C@H]2[C@@H](C)[C@@H](CC1)O[C@@]1(CC[C@@H](C)[C@@H](C[C@H](C)O)O1)[C@@H]2C :: 0.927 (inactive)
COc1ccc(-c2coc3cc(O)ccc3c2=O)c(OC)c1O :: 0.989 (inactive)
CO/N=C1/CN(c2nc3c(cc2F)c(=O)c(C(=O)O)cn3C2CC2)CC1CN (stereo not drawn) :: 1.02 (inactive)
COc1ccc(C(CN(C)C)C2(O)CCCCC2)cc1 (stereo not drawn) :: 0.999 (inactive)
C#CCN(C)Cc1ccccc1 :: 1.02 (inactive)
CCCc1cc(C(N)=S)ccn1 :: 0.952 (inactive)

Need normalized growth of O=C1NCC2(CCN(CCc3ccccc3)CC2)O1 , thanks.
0.982 (inactive)

If you can, please state the reported normalized growth value of CC1(O)CC2C(CC1O)C2(C)C (stereo not drawn) .
1 (inactive)

Form field: reported normalized growth of CC[C@@]1(O)C[C@H](O)c2c(cc3c(c2O)C(=O)c2c(O)ccc(O)c2C3=O)[C@H]1C(=O)OC
0.825 (active)

Item under review: CCn1cc(C(=O)O)c(=O)c2cc(F)c(N3CCNCC3)nc21 . Reported normalized growth?
0.994 (inactive)

====

Catalogue of normalized growth values
# experiment: chemical genetic growth profiling, strain panel (AID 1159580);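 further: tested at 20 µM; growth read once vehicle control cultures reached saturation at 30 °C; 1 = growth at the plate median or of vehicle wells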
# condition: S. cerevisiae deletion strains, growth OD, locus YFR010W, strain ubp6, active compounds read low
Out of some 5,500 compounds screened, about 2,000 (36%) were called active. Not shown: some 18% with an inconclusive outcome. Some of the results follow.

Some solved entries appear below for comparison.
COc1ccc(CN(CCN(C)C)c2ccccn2)cc1 :: 1 (inactive)
CC1CCc2cc(F)cc3c(=O)c(C(=O)O)cn1c23 (configuration not stated) :: 0.984 (inactive)
NCCS(=O)(=O)O :: 0.959 (inactive)
C[C@H]1COc2c(N3CCN(C)CC3)c(F)cc3c(=O)c(C(=O)O)cn1c23 :: 1.03 (inactive)
CNCCC(Oc1ccc(C(F)(F)F)cc1)c1ccccc1 (configuration not stated) :: 0.972 (inactive)

// below: normalized growth requested for another compound
Sample COC(=O)/C=C/C(C)=C/C=C/C(C)=C/C=C/C=C(C)/C=C/C=C(C)/C=C/C(=O)O — what was its normalized growth?
1.02 (inactive)

====

# experiment: chemical genetic growth profiling, strain panel (AID 1159580);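 further: tested at 20 µM; growth read once vehicle control cultures reached saturation at 30 °C; 1 = growth at the plate median or of vehicle wells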
# condition: S. cerevisiae deletion strains, growth OD, locus YNL271C, strain bni1, active compounds read low
Screen size: about 5,500 compounds; about 2,000 (36%) were called active. Roughly 18% stayed inconclusive and do not appear here. This is one part of the list.
Doc: threshold 1 (exclusive). Items with normalized growth beneath it return MET; others return NOT MET.

Solved cases (2 shown):
c1ccc2c(c1)sc1ccccc12 :: MET
CN(C)CCOC(c1ccc(Cl)cc1)c1ccccn1 (configuration not stated) :: NOT MET

Threshold test, normalized growth < 1: COc1ccc2c(c1)OC/C(=C\c1ccc(OC)c(O)c1)C2=O
MET

API: query returns whether the compound falls strictly under 1 in normalized growth. Query: C=C[C@@](C)(O)CCC1C(=C)C[C@H](O)C2C(C)(C)CCCC12C (some centres not stated)
NOT MET

Given NCCc1cnc[nH]1 , is recorded normalized growth strictly lower than 1?
NOT MET

I wonder whether CC1(C)S[C@@H]2[C@H](NC(=O)[C@H](N)c3ccccc3)C(=O)N2[C@H]1C(=O)O has normalized growth below 1. Can you tell?
NOT MET

Report whether reported normalized growth is lower than 1 (strictly) for O=C(Oc1cc(O)cc2c1C[C@@H](OC(=O)c1cc(O)c(O)c(O)c1)[C@@H](c1cc(O)c(O)c(O)c1)O2)c1cc(O)c(O)c(O)c1
MET

Does this compound meet the criterion normalized growth < 1? O=C(Oc1cc(OC(=O)c2ccccc2)c2c(c1)O[C@H](c1ccc(OC(=O)c3ccccc3)c(OC(=O)c3ccccc3)c1)[C@@H](OC(=O)c1ccccc1)C2)c1ccccc1
NOT MET

====

Below, each entry is listed with its recorded normalized growth.
# experiment: chemical genetic growth profiling, strain panel (AID 1159580);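 further: tested at 20 µM; growth read once vehicle control cultures reached saturation at 30 °C; 1 = growth at the plate median or of vehicle wells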
# condition: S. cerevisiae deletion strains, growth OD, locus YDL035C, strain GPR1, active compounds read low
Among all 5,500 compounds or so, about 2,000 (36%) were called active. Not shown: some 18% with an inconclusive outcome. Some of the results follow.
Number only, please.

Reference set, count: 3
COc1ccc(-c2coc3cc(O)ccc3c2=O)cc1 :: 0.933
N[C@@H](Cc1ccc(N(CCCl)CCCl)cc1)C(=O)O :: 0.986
OCC(O)CN1CCN(c2ccccc2)CC1 (centres undefined) :: 1.02

Next molecule, normalized growth to be filled in.
Returns the measured normalized growth for the input molecule. Input: Nc1nc(=S)c2[nH]cnc2[nH]1
1.02
